Tested on: Pseudomonas aeruginosa
method: Antibacterial activity against Pseudomonas aeruginosa ATCC 27853
Assay type: functional
Parameter: MIC. Scope: all listed entries.

| given-smiles | MIC |
| --- | --- |
| CC(C)(C)c1cc(C(C)(C)C)c2[nH]c(C(C)(C)C)c(C[C@H](N)C(=O)N[C@@H](CCCNC(=N)N)C(N)=O)c2c1 | 57 µM |
| COC(=O)[C@H](CCCNC(=N)N)NC(=O)[C@@H](Cc1c(C(C)(C)C)[nH]c2c(C(C)(C)C)cc(C(C)(C)C)cc12)NC(=O)[C@@H](N)CCCNC(=N)N | 57 µM |
| CC(C)(C)c1cc(C(C)(C)C)c2[nH]c(C(C)(C)C)c(C[C@H](NC(=O)[C@@H](N)CCCNC(=N)N)C(=O)N[C@@H](CCCNC(=N)N)C(N)=O)c2c1 | 44 µM |
| COC(=O)[C@H](CCCNC(=N)N)NC(=O)[C@H](Cc1c(C(C)(C)C)[nH]c2c(C(C)(C)C)cc(C(C)(C)C)cc12)NC(=O)[C@@H](N)CCCNC(=N)N | 21 µM |
| CC(C)(C)c1cc(C(C)(C)C)c2[nH]c(C(C)(C)C)c(C[C@H](N)C(=O)N[C@@H](CCCNC(=N)N)C(=O)NCc3ccccc3)c2c1 | 12 µM |
| CC(C)(C)c1cc(C(C)(C)C)c2[nH]c(C(C)(C)C)c(C[C@H](NC(=O)[C@@H](N)CCCCN)C(=O)N[C@@H](CCCNC(=N)N)C(N)=O)c2c1 | 76 µM |
| COC(=O)[C@H](CCCNC(=N)N)NC(=O)[C@H](N)Cc1c(C(C)(C)C)[nH]c2c(C(C)(C)C)cc(C(C)(C)C)cc12 | 92 µM |
| COC(=O)[C@H](CCCNC(=N)N)NC(=O)[C@@H](N)Cc1c(C(C)(C)C)[nH]c2c(C(C)(C)C)cc(C(C)(C)C)cc12 | 55 µM |
| CC(C)(C)c1cc(C(C)(C)C)c2[nH]c(C(C)(C)C)c(C[C@H](NC(=O)[C@@H](N)CCCNC(=N)N)C(=O)N[C@@H](CCCNC(=N)N)C(=O)NCc3ccccc3)c2c1 | 6.5 µM |

----------
method: Toxicity in human erythrocytes assessed as hemolysis
Type: cell-based, Erythrocyte
pEC50: −log10 of the molar value.
readout-label: pEC50

| given-smiles | readout-label | measured-result |
| --- | --- | --- |
| CC(C)(C)c1cc(C(C)(C)C)c2[nH]c(C(C)(C)C)c(C[C@H](N)C(=O)N[C@@H](CCCNC(=N)N)C(N)=O)c2c1 | pEC50 | 3.24 |
| COC(=O)[C@H](CCCNC(=N)N)NC(=O)[C@H](Cc1c(C(C)(C)C)[nH]c2c(C(C)(C)C)cc(C(C)(C)C)cc12)NC(=O)[C@@H](N)CCCNC(=N)N | pEC50 | 3.00 |
| COC(=O)[C@H](CCCNC(=N)N)NC(=O)[C@H](N)Cc1c(C(C)(C)C)[nH]c2c(C(C)(C)C)cc(C(C)(C)C)cc12 | pEC50 | 3.30 |
| CC(C)(C)c1cc(C(C)(C)C)c2[nH]c(C(C)(C)C)c(C[C@H](N)C(=O)N[C@@H](CCCNC(=N)N)C(=O)NCc3ccccc3)c2c1 | pEC50 | 4.01 |
| CC(C)(C)c1cc(C(C)(C)C)c2[nH]c(C(C)(C)C)c(C[C@H](NC(=O)[C@@H](N)CCCNC(=N)N)C(=O)N[C@@H](CCCNC(=N)N)C(=O)NCc3ccccc3)c2c1 | pEC50 | 3.94 |
| COC(=O)[C@H](CCCNC(=N)N)NC(=O)[C@@H](N)Cc1c(C(C)(C)C)[nH]c2c(C(C)(C)C)cc(C(C)(C)C)cc12 | pEC50 | 3.35 |
